biological target: UniProtKB Q9UBX1; assay: Cathepsin F Assay; assay type: biochemical; settings: IP from dose response curve; Z-Phe-Arg-AMC substrate, pH 5.5; read-out: hCat F (IP (nM))
Sequence (Q9UBX1 271-484): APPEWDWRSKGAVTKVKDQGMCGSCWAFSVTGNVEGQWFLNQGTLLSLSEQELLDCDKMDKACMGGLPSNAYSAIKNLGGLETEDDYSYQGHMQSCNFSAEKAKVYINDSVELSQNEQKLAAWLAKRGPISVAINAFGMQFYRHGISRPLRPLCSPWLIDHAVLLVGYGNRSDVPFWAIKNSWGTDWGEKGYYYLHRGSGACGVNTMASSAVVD
readoutName: IC50 (nM)
Please give a number only; it is taken to be in nM.

molecule	unitInfo	IC50
N#CC1(NC(=O)[C@@H]2CCCC[C@H]2c2nn(-c3cc(F)cnc3F)cc2-c2ccc(N3CCS(=O)(=O)CC3)cc2)CC1 [Example 169]	nM	5670
Cc1c(-c2ccc(N3CCS(=N)(=O)CC3)cc2)c([C@@H]2CCCC[C@H]2C(=O)N[C@@H](C)C#N)nn1-c1ncccc1F [Example 51]	nM	3870

Okay, next one:
IC50 recorded for this molecule, N#CC1(NC(=O)[C@@H]2CCCC[C@H]2c2nn(-c3cc(F)cc(F)c3)cc2-c2ccc(N3CCS(=O)(=O)CC3)cc2)CC1 [Example 118] , is 273
